pIC50: −log10 of the molar value.
As an illustration, consider measured pIC50 for molecules on Acetylcholinesterase (Homo sapiens, UniProt P22303).
Sequence (P22303 whole entry): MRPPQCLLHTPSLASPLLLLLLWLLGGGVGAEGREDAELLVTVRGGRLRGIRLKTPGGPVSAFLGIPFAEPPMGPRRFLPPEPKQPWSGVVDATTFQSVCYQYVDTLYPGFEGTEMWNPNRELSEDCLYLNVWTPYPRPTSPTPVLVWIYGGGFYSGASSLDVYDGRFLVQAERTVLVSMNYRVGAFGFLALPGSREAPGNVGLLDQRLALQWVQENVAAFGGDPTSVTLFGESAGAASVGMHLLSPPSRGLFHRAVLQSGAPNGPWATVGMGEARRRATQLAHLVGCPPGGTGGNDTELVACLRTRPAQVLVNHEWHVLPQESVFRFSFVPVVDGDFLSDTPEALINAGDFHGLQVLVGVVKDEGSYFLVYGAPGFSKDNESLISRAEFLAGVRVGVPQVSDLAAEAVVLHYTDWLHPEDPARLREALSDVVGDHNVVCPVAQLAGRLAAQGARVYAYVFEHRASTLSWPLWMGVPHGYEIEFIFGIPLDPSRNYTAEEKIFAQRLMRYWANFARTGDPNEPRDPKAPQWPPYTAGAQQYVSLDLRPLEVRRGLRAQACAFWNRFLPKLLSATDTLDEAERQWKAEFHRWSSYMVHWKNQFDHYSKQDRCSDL

{"compound structure": "Cc1[nH]c(C)c(/C=C2\\CN(Cc3ccccc3)CCC2=O)c1C=O", "value qualifier": "=", "pIC50": 4.52}
{"compound structure": "O=C1CCN(Cc2ccccc2)C/C1=C\\c1cn(C(=O)c2ccc([N+](=O)[O-])cc2)c2ccccc12", "value qualifier": "=", "pIC50": 4.30}
{"compound structure": "CC(C)(C)OC(=O)n1cc(/C=C2\\CN(Cc3ccccc3)CCC2=O)c2ccccc21", "value qualifier": "=", "pIC50": 4.52}
{"compound structure": "O=C1CCN(Cc2ccccc2)C/C1=C\\c1cn(C(=O)c2ccc(F)cc2)c2ccccc12", "value qualifier": "=", "pIC50": 4.22}
{"compound structure": "O=C1CCN(Cc2ccccc2)C/C1=C\\c1c[nH]c2ccc(OCc3ccccc3)cc12", "value qualifier": "=", "pIC50": 4.60}
{"compound structure": "O=C1CCN(Cc2ccccc2)C/C1=C\\c1cn(C(=O)c2ccc(Cl)cc2)c2ccccc12", "value qualifier": "=", "pIC50": 4.30}
{"compound structure": "O=C1CCN(Cc2ccccc2)C/C1=C\\c1ccc[nH]1", "value qualifier": "=", "pIC50": 4.96}
{"compound structure": "N#Cc1ccc(C(=O)n2cc(/C=C3\\CN(Cc4ccccc4)CCC3=O)c3ccccc32)cc1", "value qualifier": "=", "pIC50": 4.70}
{"compound structure": "COc1ccc2[nH]cc(/C=C3\\CN(Cc4ccccc4)CCC3=O)c2c1", "value qualifier": "=", "pIC50": 5.22}
{"compound structure": "O=C1CCN(Cc2ccccc2)C/C1=C\\c1cccn1C(=O)c1ccccc1", "value qualifier": "=", "pIC50": 4.52}
{"compound structure": "CC(=O)n1cc(/C=C2\\CN(Cc3ccccc3)CCC2=O)c2ccccc21", "value qualifier": "=", "pIC50": 4.96}
{"compound structure": "O=C1CCN(Cc2ccccc2)C/C1=C\\c1c[nH]c2ccccc12", "value qualifier": "=", "pIC50": 5.10}
{"compound structure": "O=C1/C(=C/c2cc[nH]c2)CN(Cc2ccccc2)C/C1=C\\c1cc[nH]c1", "value qualifier": "=", "pIC50": 5.22}
{"compound structure": "O=C1CCN(Cc2ccccc2)C/C1=C\\c1ccn(C(=O)c2ccccc2)c1", "value qualifier": "=", "pIC50": 4.52}
{"compound structure": "O=C1CCN(Cc2ccccc2)C/C1=C\\c1cc[nH]c1", "value qualifier": "=", "pIC50": 5.22}
{"compound structure": "O=C1CCN(Cc2ccccc2)C/C1=C\\c1cn(C(=O)c2ccccc2)c2ccccc12", "value qualifier": "=", "pIC50": 4.15}
{"compound structure": "COc1ccc(C(=O)n2cc(/C=C3\\CN(Cc4ccccc4)CCC3=O)c3ccccc32)cc1", "value qualifier": "=", "pIC50": 4.15}
{"compound structure": "COc1ccc2c(c1)c(/C=C1\\CN(Cc3ccccc3)CCC1=O)cn2C(=O)c1ccccc1", "value qualifier": "=", "pIC50": 4.10}
{"compound structure": "O=C1CCN(Cc2ccccc2)C/C1=C\\c1cn(Cc2ccccc2)c2ccccc12", "value qualifier": "<", "pIC50": 4.00}
{"compound structure": "O=C1/C(=C/c2ccc[nH]2)CN(Cc2ccccc2)C/C1=C\\c1ccc[nH]1", "value qualifier": "=", "pIC50": 4.74}

The origin of these recorded values is ChEMBL document CHEMBL1134784.
